Tested on: Plasmodium berghei
Assay: Antimalarial activity against Plasmodium berghei infected in human HepG2 cells after 44 hrs by luciferase assay
Assay type: functional, cell-based
Details: HepG2, 44 h
reported-endpoint: EC50 (nM)
Give the value, in units of nM, as a plain number.

State measured EC50 of the compound `COC(=O)c1c[nH]c2cc(N3CCN(c4ccccc4)CC3)ccc2c1=O` with Plasmodium berghei.
74

State measured EC50 of the compound `COC(=O)c1c[nH]c2ccc(CN3CCN(c4ccccc4)CC3)cc2c1=O` with Plasmodium berghei.
91

State measured EC50 of the compound `COC(=O)c1c[nH]c2cc(CN3CCN(Cc4ccccc4)CC3)ccc2c1=O` with Plasmodium berghei.
44

State measured EC50 of the compound `COC(=O)c1c[nH]c2cc(CN3CCN(c4ccc(F)cc4)CC3)c(OC)cc2c1=O` with Plasmodium berghei.
32

State measured EC50 of the compound `COC(=O)c1c[nH]c2cc(CN3CCN(c4ccc(OC)cc4)CC3)ccc2c1=O` with Plasmodium berghei.
0.12

State measured EC50 of the compound `COC(=O)c1c[nH]c2cc(CN3CCN(Cc4ccc(OC)cc4)CC3)ccc2c1=O` with Plasmodium berghei.
83

###

What log10 EC50 was measured for each of the following?
Tested on: Plasmodium berghei
Test: Antimalarial activity against Plasmodium berghei infected in human HepG2 cells after 44 hrs by luciferase assay
Type: functional, cell-based
Conditions: HepG2, 44 h
Friendly reminder: values = log10 of EC50, unit nM.

Using the record for `COC(=O)c1c[nH]c2cc(CN3CCN(c4ccc(F)cc4)CC3)c(C)cc2c1=O` , state its measured log10 EC50.
0.41

Using the record for `COC(=O)c1c[nH]c2cc(CN3CCN(Cc4ccc(OC)cc4)CC3)c(OC)cc2c1=O` , state its measured log10 EC50.
1.72

Using the record for `COC(=O)c1c[nH]c2cc(CCN3CCN(Cc4ccccc4)CC3)ccc2c1=O` , state its measured log10 EC50.
2.20

Using the record for `COC(=O)c1c[nH]c2cc(CN3CCN(Cc4ccccc4)CC3)c(C)cc2c1=O` , state its measured log10 EC50.
0.98

Using the record for `COC(=O)c1c[nH]c2ccc(CN3CCN(c4ccc(C(F)(F)F)cc4)CC3)cc2c1=O` , state its measured log10 EC50.
1.93

Using the record for `COC(=O)c1c[nH]c2cc(CN3CCN(c4ccccc4)CC3)c(C)cc2c1=O` , state its measured log10 EC50.
0.84

Using the record for `COC(=O)c1c[nH]c2cc(CN3CCN(c4ccc(C(F)(F)F)cc4)CC3)ccc2c1=O` , state its measured log10 EC50.
1.20

Using the record for `COC(=O)c1c[nH]c2cc(CN3CCN(c4ccc(OC)cc4)CC3)c(C)cc2c1=O` , state its measured log10 EC50.
0.61

###

What EC50 was measured for each of the following?
Tested on: J774
Assay: Cytotoxicity against mouse J774 cells after 72 hrs by CellTiter-96 aqueous one solution cell proliferation assay
Type: cell-based
Settings: J774, 72 h

Using the record for `COC(=O)c1c[nH]c2cc(CN3CCN(Cc4ccccc4)CC3)c(OC)cc2c1=O` , state its measured EC50.
> 20 µM

Using the record for `COC(=O)c1c[nH]c2ccc(CN3CCN(c4ccccc4)CC3)cc2c1=O` , state its measured EC50.
> 20 µM

Using the record for `COC(=O)c1c[nH]c2cc(CCN3CCN(Cc4ccccc4)CC3)ccc2c1=O` , state its measured EC50.
> 20 µM

Using the record for `COC(=O)c1c[nH]c2cc(CN3CCN(c4ccc(OC)cc4)CC3)c(C)cc2c1=O` , state its measured EC50.
> 20 µM

Using the record for `COC(=O)c1c[nH]c2cc(CN3CCN(c4ccc(C(F)(F)F)cc4)CC3)c(OC)cc2c1=O` , state its measured EC50.
> 20 µM

Using the record for `COC(=O)c1c[nH]c2cc(CN3CCN(c4ccc(F)cc4)CC3)ccc2c1=O` , state its measured EC50.
2 µM

Using the record for `COC(=O)c1c[nH]c2cc(CN3CCN(c4ccc(OC)cc4)CC3)c(OC)cc2c1=O` , state its measured EC50.
16 µM

Using the record for `Cc1[nH]c2cc(CN3CCN(c4ccc(F)cc4)CC3)ccc2c(=O)c1Cl` , state its measured EC50.
> 20 µM

Using the record for `COC(=O)c1c[nH]c2ccc(CN3CCN(c4ccc(F)cc4)CC3)cc2c1=O` , state its measured EC50.
> 20 µM

Using the record for `Cc1[nH]c2cc(CN3CCN(c4ccc(C(F)(F)F)cc4)CC3)ccc2c(=O)c1Br` , state its measured EC50.
> 20 µM

Using the record for `COC(=O)c1c[nH]c2cc(N3CCN(Cc4ccccc4)CC3)c(OC)cc2c1=O` , state its measured EC50.
12 µM

Using the record for `COC(=O)c1c[nH]c2cc(CN3CCN(Cc4ccccc4)CC3)ccc2c1=O` , state its measured EC50.
10 µM

Using the record for `COc1cc2c(=O)c(Br)c(C)[nH]c2cc1CN1CCN(c2ccc(C(F)(F)F)cc2)CC1` , state its measured EC50.
> 20 µM

Using the record for `COC(=O)c1c[nH]c2cc(N3CCN(c4ccccc4)CC3)c(OC)cc2c1=O` , state its measured EC50.
17 µM

Using the record for `O=c1c(Br)c[nH]c2cc(CN3CCN(c4ccc(F)cc4)CC3)ccc12` , state its measured EC50.
> 20 µM

Using the record for `C[C@H]1[C@@H](O)O[C@@H]2O[C@@]3(C)CC[C@H]4[C@H](C)CC[C@@H]1[C@@]24OO3` , state its measured EC50.
1.5 µM

Using the record for `COC(=O)c1c[nH]c2cc(CCN3CCN(c4ccccc4)CC3)ccc2c1=O` , state its measured EC50.
> 20 µM

Using the record for `O=c1c(Cl)c[nH]c2cc(CN3CCN(c4ccc(F)cc4)CC3)ccc12` , state its measured EC50.
> 20 µM

Using the record for `Cc1[nH]c2cc(CN3CCN(c4ccc(F)cc4)CC3)ccc2c(=O)c1Br` , state its measured EC50.
> 20 µM

Using the record for `COC(=O)c1c[nH]c2cc(CN3CCN(c4ccccc4)CC3)c(C)cc2c1=O` , state its measured EC50.
12 µM

###

Tested on: J774
Experiment: Cytotoxicity against mouse J774 cells after 72 hrs by CellTiter-96 aqueous one solution cell proliferation assay
Type: cell-based
Conditions: J774, 72 h
reported-endpoint: EC50

State measured EC50 of the compound `COC(=O)c1c[nH]c2cc(CN3CCN(c4ccc(F)cc4)CC3)c(OC)cc2c1=O` with J774.
> 20 µM

State measured EC50 of the compound `Cc1cc(=O)c2ccc(CN3CCN(c4ccc(F)cc4)CC3)cc2[nH]1` with J774.
> 20 µM

State measured EC50 of the compound `O=C1C(O)=C([C@H]2CC[C@H](c3ccc(Cl)cc3)CC2)C(=O)c2ccccc21` with J774.
28 µM

State measured EC50 of the compound `COC(=O)c1c[nH]c2cc(CN3CCN(Cc4ccc5c(c4)OCO5)CC3)ccc2c1=O` with J774.
> 20 µM

State measured EC50 of the compound `COC(=O)c1c[nH]c2cc(N3CCN(Cc4ccccc4)CC3)ccc2c1=O` with J774.
> 20 µM

State measured EC50 of the compound `COC(=O)c1c[nH]c2cc(N3CCN(Cc4ccccc4)CC3)c(C)cc2c1=O` with J774.
> 20 µM

State measured EC50 of the compound CCN(CC)CCCC(C)Nc1ccnc2cc(Cl)ccc12 (configuration not stated) with J774.
47.2 µM

State measured EC50 of the compound `COC(=O)c1c[nH]c2ccc(CN3CCN(c4ccc(OC)cc4)CC3)cc2c1=O` with J774.
> 20 µM

State measured EC50 of the compound `COC(=O)c1c[nH]c2cc(N3CCN(c4ccc(OC)cc4)CC3)ccc2c1=O` with J774.
> 20 µM

State measured EC50 of the compound `COC(=O)c1c[nH]c2cc(CN3CCN(c4ccccc4)CC3)c(OC)cc2c1=O` with J774.
> 20 µM

State measured EC50 of the compound `COC(=O)c1c[nH]c2cc(CN3CCN(c4ccc(C(F)(F)F)cc4)CC3)c(C)cc2c1=O` with J774.
> 20 µM

State measured EC50 of the compound `COC(=O)c1c[nH]c2cc(CN3CCN(Cc4ccccc4)CC3)c(C)cc2c1=O` with J774.
> 20 µM

State measured EC50 of the compound `COC(=O)c1c[nH]c2cc(CN3CCN(Cc4ccc(OC)cc4)CC3)c(C)cc2c1=O` with J774.
> 20 µM

State measured EC50 of the compound `COC(=O)c1c[nH]c2cc(N3CCN(c4ccccc4)CC3)ccc2c1=O` with J774.
> 20 µM

State measured EC50 of the compound `COC(=O)c1c[nH]c2ccc(CN3CCN(c4ccc(C(F)(F)F)cc4)CC3)cc2c1=O` with J774.
> 20 µM

State measured EC50 of the compound `COC(=O)c1c[nH]c2cc(CN3CCN(c4ccc(F)cc4)CC3)c(C)cc2c1=O` with J774.
16 µM

State measured EC50 of the compound `COC(=O)c1c[nH]c2cc(CN3CCN(c4ccc(C(F)(F)F)cc4)CC3)ccc2c1=O` with J774.
11 µM

State measured EC50 of the compound `COC(=O)c1c[nH]c2cc(N3CCN(c4ccccc4)CC3)c(C)cc2c1=O` with J774.
17 µM

State measured EC50 of the compound `COC(=O)c1c[nH]c2cc(CCN3CCN(Cc4ccc(OC)cc4)CC3)ccc2c1=O` with J774.
> 20 µM

State measured EC50 of the compound `COC(=O)c1c[nH]c2cc(N3CCN(c4ccc(OC)cc4)CC3)c(OC)cc2c1=O` with J774.
> 20 µM

State measured EC50 of the compound `Cc1[nH]c2cc(CN3CCN(c4ccc(C(F)(F)F)cc4)CC3)ccc2c(=O)c1Cl` with J774.
> 20 µM

State measured EC50 of the compound `COC(=O)c1c[nH]c2cc(CN3CCN(Cc4ccc(OC)cc4)CC3)c(OC)cc2c1=O` with J774.
> 20 µM
